# ASSAY SUMMARY: Potassium salt excretion in conscious rat at the dose of 3.0 mg/kg expressed as urinary excretion in treated rats/urinary excretion in control rats
# Format: ADME, organism-based, Urine
# Parameters: dose 3 mg/kg
# REPORTED CONDITIONS: in vivo
OBSERVABLE: K+ excretion
Returns: the value as a bare number; no unit string appended.

Form field K+ excretion, entry `Oc1nc(O)c(Br)c(-c2ccccc2)n1` : 1

Given item `Cn1c(-c2ccccc2)c(Cl)c(=O)[nH]c1=O` , the value recorded as its K+ excretion is 1.1

K+ excretion recorded for this compound, NS(=O)(=O)c1cc(C(=O)O)c(NCc2ccco2)cc1Cl [FUROSEMIDE] , is 1.3

GET /value?item= `Cn1c(N)nc(-c2ccccc2)c(Br)c1=O` &field=K+ excretion returns 1.3

Consider `Nc1nc(=O)c(Br)c(-c2ccccc2)[nH]1` . Its measured K+ excretion is 1.1

// sample `Cn1c(N)nc(-c2ccccc2)c(I)c1=O` , its K+ excretion was 1.2

The measured K+ excretion associated with NS(=O)(=O)c1cc2c(cc1Cl)NCNS2(=O)=O [HYDROCHLOROTHIAZIDE] reads 1.6

* * *

Hi there, I'd appreciate the recorded MABP change for every entry that follows.
# Test system: Rattus norvegicus
# ASSAY SUMMARY: Blood pressure change in rats after oral administration of 50 mg/kg dose after 4 hours
# Type: functional
A number alone suffices; assume mmHg.

Form field MABP change, entry `CC(=O)Nc1nc(O)c(Br)c(-c2ccccc2)n1` : 4

Entry `Oc1nc(O)c(Br)c(-c2ccccc2)n1` ; MABP change = 6

Entry Nc1nc(=O)c(Br)c(-c2ccccc2)[nH]1 [BROPIRIMINE] ; MABP change = 0

Field MABP change (entry `Cn1c(N)nc(-c2ccccc2)c(Br)c1=O` ) reads -12

Short answer for `Cn1c(-c2ccccc2)c(Br)c(=O)[nH]c1=O` : MABP change was 1

Recorded MABP change (molecule `Cn1c(-c2ccccc2)cc(=O)[nH]c1=O` ): 4

Record `CN(C)c1nc(O)c(I)c(-c2ccccc2)n1` , field MABP change: 1

So, NS(=O)(=O)c1cc(C(=O)O)c(NCc2ccco2)cc1Cl [FUROSEMIDE] ? Its MABP change was 1

Given item `N=C(N)Nc1nc(O)c(I)c(-c2ccccc2)n1` , the value recorded as its MABP change is -2

# MABP change (molecule: `Nc1nc(=O)c(Br)c(-c2ccccc2)n1O` ) is 6

Record `Cn1c(-c2ccccc2)c(I)c(=O)[nH]c1=O` , field MABP change: 15

Record `Cn1c(N)nc(-c2ccccc2)c(I)c1=O` . Reported MABP change: -6

The molecule listed as `N=C(N)Nc1nc(O)c(Br)c(-c2ccccc2)n1` shows MABP change equal to -2

Record `Oc1nc(O)c(I)c(-c2ccccc2)n1` , field MABP change: 7

Sure, the documented MABP change for `Cn1c(=O)[nH]c(-c2ccccc2)c(I)c1=O` is 1

Reported MABP change of `Cn1c(-c2ccccc2)c(Cl)c(=O)[nH]c1=O` : 2

For `CC(=O)Nc1nc(O)c(I)c(-c2ccccc2)n1` the molecule record lists MABP change as 3

The recorded MABP change for `Nc1nc(O)c(I)c(-c2ccccc2)n1` is -7

// MABP change lookup, molecule = `Cn1c(=O)[nH]c(-c2ccccc2)c(Br)c1=O` , result: -1

Entry `C=CCn1c(N)nc(-c2ccccc2)c(I)c1=O` — recorded MABP change = -6

Value of measured MABP change for the entry N=C(N)NCCN1CCCCCCC1 [GUANETHIDINE] : -16

MABP change for `CN(C)c1nc(O)c(Br)c(-c2ccccc2)n1` is 1

For reference, reported MABP change for `Cn1c(=O)cc(-c2ccccc2)[nH]c1=O` stands at 0

* * *

# ASSAY SUMMARY: Sodium salt excretion in conscious rat at the dose of 0.3 mg/kg expressed as urinary excretion in treated rats/urinary excretion in control rats
# Format: ADME, organism-based, Urine
# Design: dose 0.3 mg/kg
# REPORTED CONDITIONS: in vivo
OBSERVABLE: Na+ excretion
Just the number, please, no unit attached.

What the record says about `Nc1nc(=O)c(Br)c(-c2ccccc2)[nH]1` : Na+ excretion is 1.1

Entry `Cn1c(N)nc(-c2ccccc2)c(I)c1=O` , Na+ excretion reported as 1.1

Briefly, Na+ excretion measured for NS(=O)(=O)c1cc2c(cc1Cl)NCNS2(=O)=O [HYDROCHLOROTHIAZIDE] : 1.7

What the record says about NS(=O)(=O)c1cc(C(=O)O)c(NCc2ccco2)cc1Cl [FUROSEMIDE] : Na+ excretion is 1.1

Recorded result, `Cn1c(N)nc(-c2ccccc2)c(Br)c1=O` , Na+ excretion: 1

The compound `Cn1c(-c2ccccc2)c(Cl)c(=O)[nH]c1=O` showed Na+ excretion equal to 1.1

Summary for this compound, `Oc1nc(O)c(Br)c(-c2ccccc2)n1` : Na+ excretion is 1.2

* * *

# ASSAY SUMMARY: Potassium salt excretion in conscious rat at the dose of 1.0 mg/kg expressed as urinary excretion in treated rats/urinary excretion in control rats
# Assay type: ADME, organism-based, Urine
# Set-up: dose 1 mg/kg
# REPORTED CONDITIONS: in vivo
Task for the reader: assign each of the following compounds its reported K+ excretion.
API doc: respond with a numeric literal and nothing else, no unit.

For record `Oc1nc(O)c(Br)c(-c2ccccc2)n1` the listed K+ excretion is 1

The recorded K+ excretion for entry `Cn1c(-c2ccccc2)c(Cl)c(=O)[nH]c1=O` equals 1.2

GET /value?item= NS(=O)(=O)c1cc(C(=O)O)c(NCc2ccco2)cc1Cl [FUROSEMIDE] &field=K+ excretion returns 1

K+ excretion recorded for this compound, `Cn1c(N)nc(-c2ccccc2)c(Br)c1=O` , is 1

The reported value for Nc1nc(=O)c(Br)c(-c2ccccc2)[nH]1 [BROPIRIMINE] in terms of K+ excretion is 1

Query `Cn1c(N)nc(-c2ccccc2)c(I)c1=O` yields K+ excretion of 1.1

Noted for NS(=O)(=O)c1cc2c(cc1Cl)NCNS2(=O)=O [HYDROCHLOROTHIAZIDE] : its K+ excretion reads 1.6

* * *

# Tested on: Rattus norvegicus
# ASSAY SUMMARY: Compound was tested for urinary volume excretion in conscious rat at the dose of 0.3 mg/kg expressed as urinary excretion in treated rats/urinary excretion in control rats
# Type: ADME, organism-based, Urine
# Parameters: dose 0.3 mg/kg
# REPORTED CONDITIONS: in vivo
Exercise: for every item that follows, state its recorded Urinary volume.
Form field (numeric): enter value without unit.

Recorded Urinary volume (compound `Cn1c(N)nc(-c2ccccc2)c(Br)c1=O` ): 1

Per the records, this compound ( NS(=O)(=O)c1cc(C(=O)O)c(NCc2ccco2)cc1Cl [FUROSEMIDE] ) has Urinary volume equal to 1.1

So for `Cn1c(N)nc(-c2ccccc2)c(I)c1=O` , the logged Urinary volume turned out to be 1.3

So, `Nc1nc(=O)c(Br)c(-c2ccccc2)[nH]1` ? Its Urinary volume was 1.1

// recorded Urinary volume for `Cn1c(-c2ccccc2)c(Cl)c(=O)[nH]c1=O` : 0.9

The compound listed as NS(=O)(=O)c1cc2c(cc1Cl)NCNS2(=O)=O [HYDROCHLOROTHIAZIDE] shows Urinary volume equal to 1.9

For this compound ( `Oc1nc(O)c(Br)c(-c2ccccc2)n1` ), measured Urinary volume is 0.9

* * *

Task for the reader: assign each of the following compounds its reported Na+ excretion.
# ASSAY SUMMARY: Sodium salt excretion in conscious rat at the dose of 30 mg/kg expressed as urinary excretion in treated rats/urinary excretion in control rats
# Assay type: ADME, organism-based, Urine
# Design: dose 30 mg/kg
# REPORTED CONDITIONS: in vivo
The answer should be a number; do not append a unit.

Entry `Cn1c(-c2ccccc2)c(Cl)c(=O)[nH]c1=O` ; Na+ excretion = 1.6

Na+ excretion measured on NS(=O)(=O)c1cc(C(=O)O)c(NCc2ccco2)cc1Cl [FUROSEMIDE] = 3.1

Lab note: measured Na+ excretion of `Cn1c(N)nc(-c2ccccc2)c(Br)c1=O` was 2.5

# compound `Cn1c(N)nc(-c2ccccc2)c(I)c1=O` ; its Na+ excretion = 2.4

Value of Na+ excretion reported for the compound `Nc1nc(=O)c(Br)c(-c2ccccc2)[nH]1` is 2.9

Recorded result, NS(=O)(=O)c1cc2c(cc1Cl)NCNS2(=O)=O [HYDROCHLOROTHIAZIDE] , Na+ excretion: 2.4

Recorded Na+ excretion (compound `Oc1nc(O)c(Br)c(-c2ccccc2)n1` ): 1.4

Sourced from ChEMBL document CHEMBL1123346
